target: human 5-HT7 receptor (Homo sapiens); experiment: 5HT7 Antagonism Assay (Euroscreen FAST-0499C), cAMP HTRF; conditions: CHO-K1 cells expressing human 5-HT7, reference agonist at EC80, cAMP HTRF
Sequence (P34969 whole entry): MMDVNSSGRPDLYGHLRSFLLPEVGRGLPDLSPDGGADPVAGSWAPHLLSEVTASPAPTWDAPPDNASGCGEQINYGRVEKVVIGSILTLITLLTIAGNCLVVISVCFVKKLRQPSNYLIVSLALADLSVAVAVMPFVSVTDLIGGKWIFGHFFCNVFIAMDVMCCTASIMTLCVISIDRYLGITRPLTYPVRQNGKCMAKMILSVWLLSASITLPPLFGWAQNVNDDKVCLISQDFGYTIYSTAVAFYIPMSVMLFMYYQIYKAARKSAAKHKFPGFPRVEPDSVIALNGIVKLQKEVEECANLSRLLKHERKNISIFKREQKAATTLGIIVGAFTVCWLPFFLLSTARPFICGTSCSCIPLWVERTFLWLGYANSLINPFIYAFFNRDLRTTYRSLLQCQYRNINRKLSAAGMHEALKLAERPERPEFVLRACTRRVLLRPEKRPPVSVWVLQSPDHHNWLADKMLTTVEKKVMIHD
pIC50: −log10 of the molar value.
value kind: pIC50

[[record]]
compound = "CNCC1Cc2ccccc2Oc2cccnc21 (single isomer, unassigned) [Compound 5]"
measured_target = "human 5-HT7 receptor (Homo sapiens)"
observed_measurement = "> 6.00"

[[record]]
compound = "CNCC1Cc2cc(Cl)ccc2Oc2cccnc21 (single isomer, unassigned) [Compound 123]"
measured_target = "human 5-HT7 receptor (Homo sapiens)"
observed_measurement = "> 6.00"

[[record]]
compound = "NCC1Cc2ccncc2Oc2ccccc21 (single isomer, unassigned) [Compound 21]"
measured_target = "human 5-HT7 receptor (Homo sapiens)"
observed_measurement = "≤ 5.00"

[[record]]
compound = "CNCC1Cc2ncccc2Oc2ccc(F)cc21 (single isomer, unassigned) [Compound 166]"
measured_target = "human 5-HT7 receptor (Homo sapiens)"
observed_measurement = "5.00 to 6.00"

[[record]]
compound = "CNCC1Cc2ccc(F)cc2Oc2ccccc21 (single isomer, unassigned) [Compound 91]"
measured_target = "human 5-HT7 receptor (Homo sapiens)"
observed_measurement = "> 6.00"

[[record]]
compound = "CNCC1Cc2c(Cl)cccc2Oc2cccnc21 (single isomer, unassigned)"
measured_target = "human 5-HT7 receptor (Homo sapiens)"
observed_measurement = "≤ 5.00"

[[record]]
compound = "CNCC1Cc2ccc(F)cc2Oc2ccccc21 (single isomer, unassigned) [Compound 90]"
measured_target = "human 5-HT7 receptor (Homo sapiens)"
observed_measurement = "5.00 to 6.00"

[[record]]
compound = "NCC1Cc2ncccc2Oc2cc(F)ccc21 (single isomer, unassigned)"
measured_target = "human 5-HT7 receptor (Homo sapiens)"
observed_measurement = "≤ 5.00"

[[record]]
compound = "NCC1Cc2c(F)cccc2Oc2ccccc21 (single isomer, unassigned) [Compound 80]"
measured_target = "human 5-HT7 receptor (Homo sapiens)"
observed_measurement = "≤ 5.00"

[[record]]
compound = "CNCC1Cc2ncccc2Oc2cc(Cl)ccc21 (single isomer, unassigned) [Compound 173]"
measured_target = "human 5-HT7 receptor (Homo sapiens)"
observed_measurement = "≤ 5.00"

[[record]]
compound = "CNC[C@@H]1c2ncccc2Oc2ccccc2[C@H]1C (stereo in doubt)"
measured_target = "human 5-HT7 receptor (Homo sapiens)"
observed_measurement = "≤ 5.00"

[[record]]
compound = "NCC1Cc2ccccc2Oc2cccnc21 (single isomer, unassigned) [Compound 8]"
measured_target = "human 5-HT7 receptor (Homo sapiens)"
observed_measurement = "≤ 5.00"

[[record]]
compound = "NCC1Oc2ccccc2Oc2cnccc21 (single isomer, unassigned) [Compound 50]"
measured_target = "human 5-HT7 receptor (Homo sapiens)"
observed_measurement = "≤ 5.00"

[[record]]
compound = "NCC1Cc2c(F)cncc2Oc2ccccc21 (single isomer, unassigned) [Compound 154]"
measured_target = "human 5-HT7 receptor (Homo sapiens)"
observed_measurement = "≤ 5.00"

[[record]]
compound = "NCC1Oc2ccccc2Cc2ccccc21 (centres unmarked)"
measured_target = "human 5-HT7 receptor (Homo sapiens)"
observed_measurement = "≤ 5.00"

[[record]]
compound = "CNCC1Oc2ccccc2Oc2cnccc21 (single isomer, unassigned) [Compound 51]"
measured_target = "human 5-HT7 receptor (Homo sapiens)"
observed_measurement = "≤ 5.00"

[[record]]
compound = "CNCC1Cc2ncccc2Oc2cccc(F)c21 (single isomer, unassigned)"
measured_target = "human 5-HT7 receptor (Homo sapiens)"
observed_measurement = "≤ 5.00"


----------
Target: human TAAR1 receptors (Homo sapiens)
Sequence (Q96RJ0 1-339): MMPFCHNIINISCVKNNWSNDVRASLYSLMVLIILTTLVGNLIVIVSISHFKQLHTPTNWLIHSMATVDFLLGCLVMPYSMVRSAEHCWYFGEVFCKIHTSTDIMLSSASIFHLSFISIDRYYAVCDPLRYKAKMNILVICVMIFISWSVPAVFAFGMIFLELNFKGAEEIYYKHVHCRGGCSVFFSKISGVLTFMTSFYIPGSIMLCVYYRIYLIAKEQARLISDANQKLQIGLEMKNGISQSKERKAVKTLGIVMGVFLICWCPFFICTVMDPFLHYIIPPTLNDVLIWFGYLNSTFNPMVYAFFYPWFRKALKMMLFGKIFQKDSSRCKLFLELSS
Experiment: TAAR1 Agonism Assay: cAMP HTRF assay for Gs coupled receptor TAAR1 (Euroscreen FAST-0987C)
Conditions: CHO-K1 cells expressing human TAAR1, cAMP HTRF
value kind: EC50

[[record]]
molecule = "CNCC1Cc2ccc(C)cc2Oc2cccnc21 (single isomer, unassigned) [Compound 134]"
measured_target = "human TAAR1 receptors (Homo sapiens)"
observed_measurement = "< 1000 nM"

[[record]]
molecule = "Cc1cccc2c1CC(CN)c1ncccc1O2 (single isomer, unassigned) [Compound 140]"
measured_target = "human TAAR1 receptors (Homo sapiens)"
observed_measurement = "< 1000 nM"

[[record]]
molecule = "NCC1Cc2cccnc2Oc2ccccc21 (single isomer, unassigned) [Compound 18]"
measured_target = "human TAAR1 receptors (Homo sapiens)"
observed_measurement = "> 10000 nM"

[[record]]
molecule = "CNCC1Cc2cc(Cl)ccc2Oc2cccnc21 (single isomer, unassigned) [Compound 122]"
measured_target = "human TAAR1 receptors (Homo sapiens)"
observed_measurement = "< 1000 nM"

[[record]]
molecule = "CNCC1Cc2c(Cl)cccc2Oc2cccnc21 (single isomer, unassigned) [Compound 147]"
measured_target = "human TAAR1 receptors (Homo sapiens)"
observed_measurement = "< 1000 nM"

[[record]]
molecule = "NCC1Cc2ncccc2Oc2ccc(F)cc21 (single isomer, unassigned) [Compound 163]"
measured_target = "human TAAR1 receptors (Homo sapiens)"
observed_measurement = "1000 to 10000 nM"

[[record]]
molecule = "NCC1Cc2ncccc2Oc2ccccc21 (single isomer, unassigned) [Compound 30]"
measured_target = "human TAAR1 receptors (Homo sapiens)"
observed_measurement = "< 1000 nM"

[[record]]
molecule = "Cc1ccc2c(n1)C(CN)Cc1ccccc1O2 (single isomer, unassigned)"
measured_target = "human TAAR1 receptors (Homo sapiens)"
observed_measurement = "< 1000 nM"


----------
target: human 5-HT2A receptor (Homo sapiens); construct: host or cells: CHO-K1; assay: 5HT2A Antagonism Assay (Euroscreen FAST-05051), IP-One HTRF; assay type: cell-based; details: 5-HT2A (IC50), CHO-K1 cells expressing human 5-HT2A, reference agonist at EC80, IP-One
Sequence (P28223 whole entry): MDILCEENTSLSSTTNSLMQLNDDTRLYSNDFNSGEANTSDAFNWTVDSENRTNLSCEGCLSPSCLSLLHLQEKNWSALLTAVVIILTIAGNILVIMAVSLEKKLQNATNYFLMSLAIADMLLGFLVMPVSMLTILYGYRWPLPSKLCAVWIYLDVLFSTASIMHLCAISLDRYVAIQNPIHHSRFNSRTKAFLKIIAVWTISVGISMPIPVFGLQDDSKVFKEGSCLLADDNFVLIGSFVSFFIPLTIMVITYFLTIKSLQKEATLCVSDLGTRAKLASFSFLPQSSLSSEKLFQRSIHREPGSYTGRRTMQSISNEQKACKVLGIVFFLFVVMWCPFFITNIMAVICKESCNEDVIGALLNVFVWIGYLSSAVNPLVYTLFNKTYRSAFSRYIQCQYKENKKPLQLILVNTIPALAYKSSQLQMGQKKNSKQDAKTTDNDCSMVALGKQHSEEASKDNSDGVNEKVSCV
pIC50: −log10 of the molar value.
Recorded measurements of pIC50, one per entry
value kind: pIC50

[[record]]
molecule = "NCC1Cc2ncc(Cl)cc2Oc2ccccc21 (single isomer, unassigned) [Compound 179]"
measured_target = "human 5-HT2A receptor (Homo sapiens)"
observed_measurement = "5.00 to 6.00"

[[record]]
molecule = "NCC1Cc2c(F)cccc2Oc2ccccc21 (single isomer, unassigned) [Compound 80]"
measured_target = "human 5-HT2A receptor (Homo sapiens)"
observed_measurement = "> 6.00"

[[record]]
molecule = "N#Cc1ccc2c(c1)C(CN)Cc1ncccc1O2 (single isomer, unassigned) [Compound 159]"
measured_target = "human 5-HT2A receptor (Homo sapiens)"
observed_measurement = "< 5.00"

[[record]]
molecule = "Cc1ccc2c(c1)Oc1cccnc1C(CN)C2 (single isomer, unassigned) [Compound 133]"
measured_target = "human 5-HT2A receptor (Homo sapiens)"
observed_measurement = "5.00 to 6.00"

[[record]]
molecule = "CNCC1Cc2ncccc2Oc2ccccc21 (single isomer, unassigned) [Compound 31]"
measured_target = "human 5-HT2A receptor (Homo sapiens)"
observed_measurement = "> 6.00"

[[record]]
molecule = "NCC1Cc2ccccc2Oc2cccc(F)c21 (single isomer, unassigned) [Compound 104]"
measured_target = "human 5-HT2A receptor (Homo sapiens)"
observed_measurement = "5.00 to 6.00"

[[record]]
molecule = "CNCC1Cc2ccccc2Oc2cc(F)ccc21 (single isomer, unassigned) [Compound 3]"
measured_target = "human 5-HT2A receptor (Homo sapiens)"
observed_measurement = "> 6.00"

[[record]]
molecule = "CNCC1Cc2c(Cl)cccc2Oc2cccnc21 (single isomer, unassigned) [Compound 147]"
measured_target = "human 5-HT2A receptor (Homo sapiens)"
observed_measurement = "> 6.00"


----------
Molecular target: human TAAR1 receptors (Homo sapiens)
Sequence (Q96RJ0 1-339): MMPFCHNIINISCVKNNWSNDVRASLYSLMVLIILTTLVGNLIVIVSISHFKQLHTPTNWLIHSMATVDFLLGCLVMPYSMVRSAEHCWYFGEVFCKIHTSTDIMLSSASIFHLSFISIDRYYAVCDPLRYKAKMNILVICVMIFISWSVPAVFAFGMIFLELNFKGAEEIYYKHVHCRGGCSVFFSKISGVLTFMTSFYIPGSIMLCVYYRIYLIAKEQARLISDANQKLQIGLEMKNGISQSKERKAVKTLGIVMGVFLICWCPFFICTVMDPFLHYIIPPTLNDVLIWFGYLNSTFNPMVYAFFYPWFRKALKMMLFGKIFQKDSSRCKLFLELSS
Assay: TAAR1 Agonism Assay: cAMP HTRF assay for Gs coupled receptor TAAR1 (Euroscreen FAST-0987C)
Details: CHO-K1 cells expressing human TAAR1, cAMP HTRF
pEC50: −log10 of the molar value.
value kind: pEC50

[[record]]
compound = "CCc1ccc2c(n1)C(CNC)Cc1ccccc1O2 (single isomer, unassigned) [Compound 152]"
observed_measurement = "> 6.00"

[[record]]
compound = "CNCC1Cc2ccccc2Oc2cccnc21 (single isomer, unassigned) [Compound 6]"
observed_measurement = "> 6.00"

[[record]]
compound = "NCC1Cc2ncccc2Oc2ccc(Cl)cc21 (single isomer, unassigned) [Compound 168]"
observed_measurement = "5.00 to 6.00"

[[record]]
compound = "CNCC1Cc2cc(F)ccc2Oc2ccccc21 (single isomer, unassigned) [Compound 99]"
observed_measurement = "< 5.00"

[[record]]
compound = "NCC1Cc2cc(Cl)ccc2Oc2cccnc21 (single isomer, unassigned) [Compound 120]"
observed_measurement = "> 6.00"

[[record]]
compound = "CNCC1Cc2ccccc2Oc2ccc(F)cc21 (single isomer, unassigned) [Compound 94]"
observed_measurement = "> 6.00"

[[record]]
compound = "CNCC1Cc2cc(C)ccc2Oc2cccnc21 (single isomer, unassigned) [Compound 130]"
observed_measurement = "> 6.00"

[[record]]
compound = "CNCC1Cc2ccc(F)cc2Oc2ccccc21 (single isomer, unassigned) [Compound 91]"
observed_measurement = "> 6.00"

[[record]]
compound = "NCC1Cc2cccc(F)c2Oc2ccccc21 (single isomer, unassigned) [Compound 85]"
observed_measurement = "> 6.00"

[[record]]
compound = "Cc1cccc2c1CC(CN)c1ncccc1O2 (single isomer, unassigned) [Compound 141]"
observed_measurement = "> 6.00"

[[record]]
compound = "CN(C)CC1Cc2ccccc2Oc2cccnc21 (single isomer, unassigned) [Compound 110]"
observed_measurement = "< 5.00"

[[record]]
compound = "NCC1Cc2c(Cl)cccc2Oc2cccnc21 (single isomer, unassigned) [Compound 144]"
observed_measurement = "> 6.00"

[[record]]
compound = "NCC1Cc2ccc(Cl)cc2Oc2cccnc21 (single isomer, unassigned) [Compound 125]"
observed_measurement = "> 6.00"

[[record]]
compound = "CNCC1Oc2ccccc2Oc2cccnc21 (single isomer, unassigned) [Compound 57]"
observed_measurement = "> 6.00"

[[record]]
compound = "NCC1Cc2ncccc2Oc2ccccc21 (single isomer, unassigned) [Compound 29]"
observed_measurement = "5.00 to 6.00"

[[record]]
compound = "NCC1Cc2cc(Cl)ccc2Oc2cccnc21 (single isomer, unassigned) [Compound 121]"
observed_measurement = "> 6.00"

